- tgt: KAT-8 (Homo sapiens (Human), UniProt Q9H7Z6)
- Sequence (Q9H7Z6 other isoform, or with tags, fused parts or gaps): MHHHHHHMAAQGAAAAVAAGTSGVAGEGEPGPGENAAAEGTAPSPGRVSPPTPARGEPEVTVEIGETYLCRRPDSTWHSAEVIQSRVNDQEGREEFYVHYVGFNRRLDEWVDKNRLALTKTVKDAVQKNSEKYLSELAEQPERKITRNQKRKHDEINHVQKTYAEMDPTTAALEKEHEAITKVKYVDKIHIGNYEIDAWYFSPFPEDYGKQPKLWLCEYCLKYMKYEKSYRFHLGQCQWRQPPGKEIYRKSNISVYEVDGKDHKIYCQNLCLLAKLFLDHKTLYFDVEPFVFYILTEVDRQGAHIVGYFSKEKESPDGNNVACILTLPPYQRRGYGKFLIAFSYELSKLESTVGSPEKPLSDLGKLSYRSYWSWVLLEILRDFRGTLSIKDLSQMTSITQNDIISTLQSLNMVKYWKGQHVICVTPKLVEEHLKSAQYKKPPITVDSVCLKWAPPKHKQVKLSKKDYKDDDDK
- assay_info: KAT-8 biochemical inhibition assay (SAMDI mass spectrometry)
- Description: KAT-8. Enzyme assay buffer was 50 mM Tris pH 8.0, 0.002% Tween20, 0.005% bovine skin gelatin, and 1 mM dithiothreitol (DTT). For determination of IC50 values, compounds were serially diluted with 2% (v/v) DMSO in the final reaction, pre-incubating each dilution of each compound with 40 μL of assay buffer containing KAT-8 enzyme (12.5 nM final concentration). 10 μL of assay buffer containing 1 μM peptide substrate and 5 μM acetyl coenzyme A (final concentrations) was added. […]
experimental_readout: IC50

The following compounds have reported results that may help.
compound: Cn1cc(-c2cc(Cl)c(F)c(C(=O)NNS(=O)(=O)CC3CCOCC3)c2)nn1 [Compound I-67]
result: > 100 µM

compound: O=C(NNS(=O)(=O)CC1CCOCC1)c1cc(-c2cocn2)cc(Cl)c1F [Compound I-68]
result: 10 to 50 µM

compound: Cn1cnc(-c2cc(Cl)c(F)c(C(=O)NNS(=O)(=O)N3CCOCC3)c2)c1 [Compound I-108]
result: 10 to 50 µM

We next turn to a different compound, shown below.
Prompt: // fetch IC50; item: Cn1cnc(-c2cc(Cl)c(F)c(C(=O)NNS(=O)(=O)c3cnn(CCO)c3)c2)c1 [Compound I-362] ; system: KAT-8 (Homo sapiens (Human), UniProt Q9H7Z6)
Completion: 10 to 50 µM

---

- Test system: NOMO1 cells
- assay_info: Long term proliferation assay (14-day), NOMO1
- Format: cell-based
- particulars: Homo sapiens, NOMO-1, 336 h; NOMO1, AML; 14-day timepoint; absolute IC50
experimental_readout: IC50

Prompt: Given `COCc1cc(Cl)c(F)c(C(=O)NNS(=O)(=O)c2cccc(O)c2)c1` , respond with its IC50.
Completion: ≤ 10 µM

---

Entries and their IC50
- tgt: KAT-5 (Homo sapiens (Human), UniProt Q92993)
- Sequence (Q92993 other isoform, or with tags, fused parts or gaps): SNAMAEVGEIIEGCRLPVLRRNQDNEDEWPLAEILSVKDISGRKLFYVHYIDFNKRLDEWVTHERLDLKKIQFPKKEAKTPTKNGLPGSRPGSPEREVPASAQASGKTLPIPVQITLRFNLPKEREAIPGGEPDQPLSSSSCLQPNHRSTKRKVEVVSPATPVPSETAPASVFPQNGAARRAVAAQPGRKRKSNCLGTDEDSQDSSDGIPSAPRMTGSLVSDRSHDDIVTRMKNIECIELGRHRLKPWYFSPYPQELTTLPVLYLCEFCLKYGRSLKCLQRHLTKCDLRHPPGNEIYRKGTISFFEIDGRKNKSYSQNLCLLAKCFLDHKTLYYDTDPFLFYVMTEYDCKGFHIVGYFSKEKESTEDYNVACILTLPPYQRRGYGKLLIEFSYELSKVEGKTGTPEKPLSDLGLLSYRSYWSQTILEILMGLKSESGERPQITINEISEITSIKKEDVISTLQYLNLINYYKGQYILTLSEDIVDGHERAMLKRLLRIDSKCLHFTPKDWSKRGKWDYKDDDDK
- assay_info: KAT-5 biochemical inhibition assay (SAMDI mass spectrometry)

compound: CCS(=O)(=O)N1CCC(CS(=O)(=O)NNC(=O)c2cc(-c3cn(C)cn3)cc(Cl)c2F)C1 (stereo not shown)
result: < 10 µM
--
compound: Cn1cnc(-c2cc(Cl)c(F)c(C(=O)NNS(=O)(=O)c3cnn(C)c3)c2)c1
result: 50 to 100 µM
--
compound: CNC(=O)N[C@H]1C[C@H](CS(=O)(=O)NNC(=O)c2cc(-c3cn(C)cn3)cc(Cl)c2F)C1
result: 10 to 50 µM
--
compound: Cn1cnc(-c2cc(Cl)c(F)c(C(=O)NNS(=O)(=O)Cc3ccnn3C)c2)c1 [Compound I-482]
result: 10 to 50 µM
--
compound: Cn1cnc(-c2cc(Cl)c(F)c(C(=O)NNC3CCS(=O)(=O)C3)c2)c1 (stereo not shown)
result: 10 to 50 µM
--
compound: CC(=O)N1C[C@H](CS(=O)(=O)NNC(=O)c2cc(-c3cn(C)cn3)cc(Cl)c2F)[C@@H](C)C1
result: 10 to 50 µM

We next turn to a different compound, shown below.
Prompt: Given `CC(=O)N[C@H]1C[C@H](CS(=O)(=O)NNC(=O)c2cc(-c3cn(C)cn3)cc(Cl)c2F)C1` , respond with its IC50.
Completion: 10 to 50 µM

Cited source for all entries: patent US11685732B2
